Value source: ChEMBL document CHEMBL1201862

System: A498
Assay Remarks: NCI tumour cell line growth inhibition, 48 h
Calls of active or inactive are those of the source. Rule as the data show it: active = GI50 up to about 1.1 µM and inactive = higher.
Answer with one of the outcomes given here: class 1 (active), class 0 (inactive)

[
  {
    "Compound": "CC1(C)C(=O)/C=C\\C(=O)C(C)(C)C(=O)/C=C\\C(=O)C(C)(C)C(=O)/C=C\\C(=O)C(C)(C)C(=O)/C=C\\C1=O",
    "Label Value": "class 0"
  }
]

Data request: Which result was noted for this compound in the test: `CSc1nc(C)c(CCOC(C)=O)c(Cl)n1`
Data returned: class 0

Data request: Which result was noted for this compound in the test: `Cc1nc2sc3cccc(Cl)c3n2c(=O)c1/N=N/c1ccc(Cl)cc1`
Data returned: class 0

Data request: Which result was noted for this compound in the test: `O=[N+]([O-])c1ccc(-c2ccc(-c3csc(Nc4ccccc4)n3)o2)cc1`
Data returned: class 0

Data request: Which result was noted for this compound in the test: CC(=O)N1CN2C(=O)CCC2c2cc(C)ccc21 (stereo not drawn)
Data returned: class 0
